These data points were gathered from patent US20120219562A1.

# tested.on: T1, human interleukin 12 (human, UniProt P29459 23-219; P29460 23-328)
# T1 construct: heterodimer of p35 and p40 linked by a disulfide bridge; also called hIL-12; IL-12
# T1 sequence (looked up) 1: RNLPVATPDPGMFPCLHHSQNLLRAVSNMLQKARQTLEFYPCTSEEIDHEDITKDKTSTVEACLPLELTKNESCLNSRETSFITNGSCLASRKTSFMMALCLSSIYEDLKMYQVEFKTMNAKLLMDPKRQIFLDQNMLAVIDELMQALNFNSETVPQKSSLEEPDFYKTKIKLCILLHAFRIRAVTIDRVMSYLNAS
# T1 sequence (looked up) 2: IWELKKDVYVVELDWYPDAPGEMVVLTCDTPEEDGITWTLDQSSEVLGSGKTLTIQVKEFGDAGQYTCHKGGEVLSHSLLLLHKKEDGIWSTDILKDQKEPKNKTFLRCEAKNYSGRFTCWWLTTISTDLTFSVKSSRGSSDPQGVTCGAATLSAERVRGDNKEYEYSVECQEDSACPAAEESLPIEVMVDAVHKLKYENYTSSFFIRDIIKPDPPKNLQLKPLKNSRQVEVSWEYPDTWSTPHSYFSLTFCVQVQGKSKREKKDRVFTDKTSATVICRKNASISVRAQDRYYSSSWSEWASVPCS
# test.description: SPR (BIAcore)
quantity.name: koff (s⁻¹)
Express your answer in s⁻¹, writing the number without its unit.

The examples below pair each entry with its known result.
>>> experimental_result("A8 (antibody, V domains shown) VH: QVQLVQSGGGVVQPGRSLRLSCAASGFTFSSYGMHWVRQAPGKGLEWVAFIRYDGSNKYYADSVKGRFTISRDNSKNTLYLQMKSLRAEDTAVYYCKTHGSHDNWGQGTMVTVSS VL: SYVLTQPPSVSGTPGQRVTISCSGGRSNIGSNTVKWYQQLPGTAPKLLIYGNDQRPSGVPDRFSGSKSGTSASLAITGVQAEDEADYYCQSYDRGKSNKMLFGTGTKVTVL")
0.00237
>>> experimental_result("M2 B5 (antibody, V domains shown) VH: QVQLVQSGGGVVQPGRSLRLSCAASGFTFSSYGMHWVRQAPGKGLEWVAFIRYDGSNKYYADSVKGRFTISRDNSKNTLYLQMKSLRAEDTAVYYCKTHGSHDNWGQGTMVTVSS VL: SYVLTQPPSVSGTPGQRVTISCSGGRSNIGSNTVKWYQQLPGTAPKLLIYGNDQRPSGVPDRFSGSKSGTSASLAITGVQAEDEADYYCQSYDSGVTGSRVFGTGTKVTVLG")
0.00838

Could you now consider this next binder?
Inquiry: Can you share its koff? I mean this binder: 73-C1 (antibody, V domains shown) VH: QVQLVQSGGGVVQPGRSLRLSCAASGFTFSSYGMHWVRQAPGKGLEWVAFIRYDGSNKYYADSVKGRFTISRDNSKNTLYLQMKSLRAEDTAVYYCTTSGSYDYWGQGTMVTVSS VL: SYVLTQPPSVSGTPGQRVTISCSGGRSNIGSNTVKWYQQLPGTAPKLLIYGNDQRPSGVPDRFSGSKSGTSASLAITGVQAEDEADYYCHSYDSRFTGSRVFGTGTKVTVLG
Reply text: 0.00271
